- EXPERIMENT_NOTES: inhibitors of TNFa-induced NFkB p65 translocation, primary screen, imaging, HUVEC, MLSMR starter and 10KST1 sets (AID 438);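 note: compound added about 3h40 before a 20 min TNFalpha stimulation; signal is the nuclear over cytoplasmic p65 intensity ratio per well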
- CONDITION_SUMMARY: HUVEC TNFa-induced p65 nuclear translocation; at 2 µM, stronger effect = higher value, 0% TNFa-plus-vehicle, 100% no-TNFa wells
OBSERVATION_TYPE: inhibition (%)
Entry rule: numbers only, all in %.

Illustrative cases are given below, each with its answer.
[[record]]
smiles_str = "CCOc1ccc2cc(C#N)c(SCC(=O)N3CCCC3)nc2c1"
numeric_value = -6.5

[[record]]
smiles_str = "COc1ccccc1CNS(=O)(=O)c1cccc(S(=O)(=O)N2CCOCC2)c1"
numeric_value = 25.1

[[record]]
smiles_str = "COC(=O)c1oc2ccc(OC)cc2c1N"
numeric_value = 5.5

[[record]]
smiles_str = "COC(=O)c1cccc(S(=O)(=O)N2CCN(c3nc4ccccc4s3)CC2)c1"
numeric_value = -5

[[record]]
smiles_str = "Cc1nn(-c2ccc(F)cc2)c2sc(C(=O)OCC(=O)N3CCC(C)CC3)cc12"
numeric_value = -4.2


# ---- query compound ----
Prompt: Which inhibition reading was recorded for the compound `CCCOc1ccc(-c2nnn(CC(=O)Nc3cccc(C(=O)OC)c3)n2)cc1` ?
Response: -2.1

---

- EXPERIMENT_NOTES: blockers of RIG-like receptor reporter activation – cell-based, Sendai virus stimulus, luciferase, 10K MLSCN set, TLR/RLR signaling modifier project, primary screen (AID 602276);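 note: firefly luciferase from ISG56 promoter only with Renilla not read in this screen; 0% = Sendai virus plus DMSO and 100% = medium plus DMSO without virus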
- CONDITION_SUMMARY: HEK293 RL24 IRF3 luciferase reporter, at 10 µM, stronger effect = higher value
Active and inactive are the calls of the source.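 Rule for the calls: active = inhibition at or above 50% at 10 µM; inactive = inhibition below 50%.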
OBSERVATION_TYPE: inhibition

Prompt: Which inhibition reading was recorded for the compound CCOC(=O)C1CCCN(C(=O)CNS(=O)(=O)c2ccc(Br)s2)C1 (stereo unspecified) ?
Response: 11.6% (inactive)

Prompt: Which inhibition reading was recorded for the compound `CC(=O)Nc1ccn(-c2ccccc2)n1` ?
Response: -39.2% (inactive)

Prompt: Which inhibition reading was recorded for the compound `CCc1c(C)nc(N)n2c(SCC(=O)N3CCCc4ccccc43)nnc12` ?
Response: 20.9% (inactive)

Prompt: Which inhibition reading was recorded for the compound `N#Cc1c(SCC(=O)N2CCOCC2)nsc1SCC(=O)N1CCOCC1` ?
Response: 3.35% (inactive)

Prompt: Which inhibition reading was recorded for the compound `O=C(CSc1nnc2scc(-c3ccccc3)n12)N1CCN(Cc2ccccc2)CC1` ?
Response: 6.37% (inactive)

---

- MEASURED_ON: Voltage-gated potassium channel subunit beta-2 (Rattus norvegicus) (UniProt P62483)
- Sequence (P62483 whole entry, looked up): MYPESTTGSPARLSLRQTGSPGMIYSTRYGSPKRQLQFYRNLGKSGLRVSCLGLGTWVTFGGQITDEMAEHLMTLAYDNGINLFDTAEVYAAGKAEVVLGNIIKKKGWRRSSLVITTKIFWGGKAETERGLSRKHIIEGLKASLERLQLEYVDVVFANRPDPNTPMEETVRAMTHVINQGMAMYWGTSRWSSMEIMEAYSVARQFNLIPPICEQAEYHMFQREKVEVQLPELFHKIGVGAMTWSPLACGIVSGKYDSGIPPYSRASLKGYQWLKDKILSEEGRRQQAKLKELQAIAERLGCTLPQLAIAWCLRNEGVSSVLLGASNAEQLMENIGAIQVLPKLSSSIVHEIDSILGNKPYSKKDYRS
- EXPERIMENT_NOTES: inhibitors of rat Kvbeta2 reductase activity – biochemical, NADPH fluorescence, primary screen (AID 622);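 note: slope of raw intensity against log time taken from 70 to 1610 s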
- CONDITION_SUMMARY: recombinant KvBeta, 4-cyanobenzaldehyde reduction, at 10 µM, stronger effect = higher value
Consider the following molecules and their measured fluorescence slope readings.
The response must contain the number and no unit.

[[record]]
molecule = "O=C(Cn1cccc1)N1CCN(C(c2ccccc2)c2ccccc2)CC1"
numeric_value = -0.213

[[record]]
molecule = "Clc1ccc(SCCCCn2ccnc2)cc1"
numeric_value = -0.306

[[record]]
molecule = "CCn1c(=O)n(CC(=O)N(C)Cc2ccccc2)c(=O)c2ccccc21"
numeric_value = -0.559

[[record]]
molecule = "C=CCOc1nc(N2CCCC2)nc(N2CCCC2)n1"
numeric_value = -0.551

[[record]]
molecule = "O=P(O)(c1ccccc1)c1ccccc1O"
numeric_value = -0.452

[[record]]
molecule = "CC(=O)[C@H]1CC[C@H]2[C@@H]3CCC4=CC(=O)CC[C@]4(C)[C@H]3CC[C@]12C"
numeric_value = -0.446

[[record]]
molecule = "CCn1c2ccccc2c2cc(NC(=O)Cc3ccc(S(=O)(=O)N4CCOCC4)s3)ccc21"
numeric_value = -0.502

[[record]]
molecule = "CCOC(=O)N1CCC(NC(=O)CCc2c(C)nc3c(c(C)nn3C(C)(C)C)c2C)CC1"
numeric_value = -0.397


Prompt: Which fluorescence slope reading was recorded for the molecule `CC(=O)Nc1ccc(S(=O)(=O)n2cnc(C)c2)cc1` ?
Response: -0.584

Prompt: Which fluorescence slope reading was recorded for the molecule Cc1ccc2c(c1)c1c(n2CC(O)Cn2c(C)nc3ccccc32)/C(=N\O)CCC1 (configuration not stated) ?
Response: -0.433

Prompt: Which fluorescence slope reading was recorded for the molecule `COC(=O)c1c(N)nc(C)n1-c1ccc(OC)cc1` ?
Response: -0.364

Prompt: Which fluorescence slope reading was recorded for the molecule O=C(NCc1ccco1)C1CC(=O)N(c2ccc(F)cc2)C1 (configuration not stated) ?
Response: -0.593

Prompt: Which fluorescence slope reading was recorded for the molecule CC(NC(=O)c1ccccc1NC(=O)c1ccco1)C(=O)O (configuration not stated) ?
Response: -0.551
